tested on: MCF7; assay: NCI tumour cell line growth inhibition, 48 h
Activity calls are given as the source filed them. Cut-off read from the data, not from the text of the source: active = GI50 up to about 1.1 µM and inactive = higher.
Classes used: YES = active, NO = inactive

                                   molecule  group_label
0                        Cn1ncc2c(Cl)ncnc21           NO
1  c1ccc(COC2NCCN2Cc2ccccc2)cc1 (stereo not given)           NO
2  COc1ccc2oc(C(=O)N3CC(CCl)c4ccc(N)cc43)cc2c1 (stereo not given)          YES
3  CN1C/C(=C\c2cccs2)C2=NN(c3ccccc3)C(c3cccs3)C2C1 (stereo not given)           NO
4  Nc1nc2c(c(=O)[nH]1)N=C(COP(=O)(O)OP(=O)(O)O)CN2           NO
5      COc1ccc(SCc2cc(OC)c(OC)c(OC)c2)cc1OC           NO
6  COc1cccc(/C=C/C2=NN(c3cccc(S(=O)(=O)O)c3)C3(C2)SCC(=O)N3c2nc3ccccc3s2)c1 (stereo not given)           NO
7  CC(=O)NNc1nc(C)c(C(/C=C/c2ccccc2O)=N/N=C(N)N)s1           NO
8  CCN(CC)CC(O)CNc1ccc(NCC2CO2)c2c1C(=O)c1ccccc1C2=O (stereo not given)          YES
9  O=[N+]([O-])c1cccc2nc3ccccc3c(NCCCCCNc3c4ccccc4nc4cccc([N+](=O)[O-])c34)c12          YES

====

system: EKVX; assay: NCI tumour cell line growth inhibition, 48 h
Activity calls are given as the source filed them. No stated cut-off is given here; in the data, active = GI50 up to about 1.1 µM and inactive = higher. Starred links: 1 amine or outer side, 2 acyl side, 3 side chain; linkers in the order of their positions; H or OH if unused. Non-standard residues stand in square brackets, D forms with d. Residues, ends and D or L forms follow the SMILES beside them. X35 = C=CCC(O[*:1])C(=O)[*:2]; NMeV = CN[CH](C(=O)O)C(C)C; NMeA = CN[CH](C)C(=O)O; βAla = NCCC(=O)O
Classes used: TRUE (active), FALSE (inactive)

Compound	Group Label
COc1cccc(/C=C/C2=NN(c3cccc(S(=O)(=O)O)c3)C3(C2)SCC(=O)N3c2nc3ccccc3s2)c1 (centres undefined)	FALSE
CCO[C@@]1(COCc2ccccc2)OC(=O)C[C@@H]1N1C(=O)OC[C@@H]1c1ccccc1	FALSE
C=C1OC(c2ccccc2NC)=NC12CCCCC2	FALSE
C=CCC1OC(=O)CCNC(=O)C(C)N(C)C(=O)C(C(C)C)N(C)C(=O)C(C(C)CC)NC(=O)C2CCCN2C1=O (centres undefined) (cyclo([X35]PI[NMeV][NMeA][βAla]); configuration not given here)	FALSE
COc1cc(C2c3cc4c(cc3C3OC[C@@H]2C3CO)OCO4)cc(OC)c1OC (some centres undefined)	FALSE
O=C(CC(=O)n1nc(-c2ccccc2)c(/N=N/c2ccc([N+](=O)[O-])cc2)c1-c1ccccc1)Nc1ccc(Cl)cc1	FALSE
C1=N\CCNCCNCC/N=C\c2ccc(cc2)OCc2cccc(n2)COc2ccc/1cc2	FALSE
COC(=O)CC(C(C(=O)OC)C(=O)OC)N1C(=O)OCC1c1ccccc1 (centres undefined)	FALSE
CC(=O)Oc1ccc(/C=C/C(=O)O[C@H]2CCCC[C@@H]2OC(=O)/C=C/c2ccc(OC(C)=O)c(OC(C)=O)c2)cc1OC(C)=O	FALSE
Cc1ccc(/N=N/C(C(=O)c2ccccc2)C(=O)c2ccccc2)cc1	FALSE
NNC(=O)CC(=O)Nc1ccccc1Cl	FALSE
CC1CC(N)=Nc2ccccc2N1Cc1ccccc1 (centres undefined)	FALSE
COC(=O)C(F)C(Br)C(=O)OC (centres undefined)	FALSE
NC(=O)NC(=O)c1cccc(C(=O)NC(N)=O)n1	FALSE
O=[N+]([O-])c1cccc2nc3ccccc3c(NCCCCCNc3c4ccccc4nc4cccc([N+](=O)[O-])c34)c12	TRUE
Cc1ccc([S+](c2ccccc2)c2cc(C)ccc2C)cc1.O=C(OC(C(=O)[O-])C(OC(=O)c1ccccc1)C(=O)O)c1ccccc1 (centres undefined)	FALSE
COc1cc2cc(C(=O)N3CC(COS(C)(=O)=O)c4c3cc(N)c3ccccc43)[nH]c2c(OC)c1OC (centres undefined)	TRUE
CC(C)N1CC2CC(CN(C(=O)c3ccc(Cl)cc3)C2)C1	FALSE
O=C(/C=C/c1ccc(Cl)c(Cl)c1)c1ccc2ccccc2c1	FALSE

====

system: UACC-257; test: NCI tumour cell line growth inhibition, 48 h
Activity calls are given as the source filed them. Rule as the data show it: active = GI50 up to about 1.1 µM and inactive = higher.
Classes used: Y (active), N (inactive)

Compound	Group Label
Cc1c2cc[n+](C)cc2c(C)c2c1[nH]c1ccc(O)c(OCC(F)(F)F)c12	N
COC(=O)/C(=N/NC(N)=O)C(C(=O)C(=O)Nc1ccc(C)cc1)c1nc2ccc(C(=O)c3ccccc3)cc2nc1O (stereo not given)	N
Cc1nc2c(Br)cc(Br)cc2c(=O)n1-c1ccccc1N	N
CC(=O)Nc1ccc2c(C(=O)O)c(C)c(O)nc2n1	N
Nc1nc2c(c(=O)[nH]1)N=C(COP(=O)(O)OP(=O)(O)O)CN2	N
CN(C)c1ccc(C2CC(=O)C(C#N)=C(c3ccccc3)NN2C)cc1 (stereo not given)	N
N#Cc1ccccc1NC(=O)/C(=N\Nc1ccc([N+](=O)[O-])cc1)C1C(=O)NC(=O)NC1=O	N
O=C(N/C(=C\c1ccc(Cl)cc1)c1nc2ccccc2[nH]1)c1ccccc1	N
CC(C)N1CC2CC(CN(C(=O)c3ccc(Cl)cc3)C2)C1	N
C(=C\c1c2oc(-c3ccccc3)cc(-c3ccccc3)c-2c2ccccc12)/C=C1\c2ccccc2-c2c(-c3ccccc3)cc(-c3ccccc3)[o+]c21.[O-][Cl+3]([O-])([O-])[O-]	N
O=C1CCc2c(sc3ncnc(Nc4cccc(Br)c4)c23)C1	N
CN1C(=O)C(C(=O)Nc2ccccn2)C2C[C@@]1(C)Oc1ccccc12 (stereo not given in full)	N
O=C1c2cc([N+](=O)[O-])sc2C(=O)c2c([N+](=O)[O-])csc21	Y
c1ccc(COC2NCCN2Cc2ccccc2)cc1 (stereo not given)	N
Cc1cc(C)c(-n2c(-c3ccccc3)cs/c2=N\N=C2C=C(C(C)(C)C)C(=O)C(C(C)(C)C)=C2)c(C)c1	N
CCOc1ccc(NC(=O)/C(=C/c2ccccc2)C(C)=O)cc1	N
COC(=O)c1cc2c(=O)n(C)c3ccccc3n2c1C(=O)OC	N
CN(c1ccccc1Cl)S(=O)(=O)c1ccccc1	N
O=C1CSC(c2cccc(Cl)c2)N1c1c(O)c(Cl)cc(Br)c1Cl (stereo not given)	N
Cc1cc2c(c(/C=N/c3ccc(N(C)C)cc3)c1)OC1(C=C2)Oc2ccccc2C(=O)N1C (stereo not given)	N

====

system: HOP-62; test: NCI tumour cell line growth inhibition, 48 h
Active and inactive are the calls of the source. No stated cut-off is given here; in the data, active = GI50 up to about 1.1 µM and inactive = higher.
Classes used: TRUE (active), FALSE (inactive)

>>> df
                                   compound  group_label
0              BrCc1ccc2ccc3ccc(CBr)nc3c2n1        FALSE
1  CN1C/C(=C\c2cccs2)C2=NN(c3ccccc3)C(c3cccs3)C2C1 (stereo not given)        FALSE
2    C=C/C=C(\NC(=O)C(Cl)(Cl)Cl)[Si](C)(C)C        FALSE
3  COC(=O)C1(C(=O)OC)CC2=C(S(=O)(=O)c3ccccc3)C[C@H](S(=O)(=O)c3ccccc3)[C@H]2C1        FALSE
4  Cc1c2cc[n+](C)cc2c(C)c2c1[nH]c1ccc(OCC(F)(F)F)cc12         TRUE

====

tested on: OVCAR-5; test: NCI tumour cell line growth inhibition, 48 h
Active and inactive are the calls of the source. Cut-off read from the data, not from the text of the source: active = GI50 up to about 1.1 µM and inactive = higher.

Compound	GI50
Nc1ccc2nc(Nc3ccc(F)cc3)cnc2c1	> 100 µM (inactive)
CCOC(=O)C(C(O)c1ccc([N+](=O)[O-])cc1)P(=O)(OCC)OCC (stereo not given)	> 100 µM (inactive)
Cc1cc2c(c(/C=N/c3ccc(N(C)C)cc3)c1)OC1(C=C2)Oc2ccccc2C(=O)N1C (stereo not given)	17.7 µM (inactive)
c1ccc2c3c([nH]c2c1)C1C2CCCCN2C(c2ccncc2)N1CC3 (stereo not given)	35.7 µM (inactive)
COc1cc(C2C(Cl)C(=O)N2c2ccc(Br)cc2)cc(I)c1O (stereo not given)	87.7 µM (inactive)
CCN(CC)CC(O)CNc1ccc(NCC2CO2)c2c1C(=O)c1ccccc1C2=O (stereo not given)	2.3 µM (inactive)
CCN(CC)CCC(=O)N1CCc2c([nH]c3ccccc23)C1c1cccnc1 (stereo not given)	> 100 µM (inactive)
CC(=O)Oc1ccc(/C=C/C(=O)O[C@H]2CCCC[C@@H]2OC(=O)/C=C/c2ccc(OC(C)=O)c(OC(C)=O)c2)cc1OC(C)=O	12.3 µM (inactive)
O=C(CCCCCCCCC(=O)NN1C(=O)/C(=C\c2ccc(O)c(O)c2)SC1c1ccc(Cl)cc1)NN1C(=O)/C(=C\c2ccc(O)c(O)c2)SC1c1ccc(Cl)cc1 (stereo not given)	> 86.3 µM (inactive)
O=C(N/C=C1\C(=O)Oc2ccccc2C1=O)Nc1ccccc1	61.5 µM (inactive)
CCc1n[nH]c(=O)n1N1C(=O)CCC1=O	> 100 µM (inactive)
O=C1[C@@H]2C3c4ccccc4C([C@@H]2C(=O)N1c1ccccc1)S3(=O)=O	> 100 µM (inactive)
CN(CCN1C(=O)c2cc([N+](=O)[O-])cc3cc([N+](=O)[O-])cc(c23)C1=O)CCN1C(=O)c2cc([N+](=O)[O-])cc3cc([N+](=O)[O-])cc(c23)C1=O	1.69 µM (inactive)
O=[N+]([O-])c1ccc(Cl)c(C2CC(c3cccc4ccccc34)=Nc3ccccc3S2)c1 (stereo not given)	42.1 µM (inactive)
COc1ccc(/C=C/C(=O)c2nc3ccccc3[nH]2)cc1	22 µM (inactive)
Cc1nc(SCC(=O)Nc2ccc(Cl)cc2)c2sc(=S)n(-c3ccccc3)c2n1	> 10 µM (inactive)
CN(C)CCNC(=O)c1cc2ccccc2c2nc3ccccc3nc12	1.94 µM (inactive)
Nc1ccccc1C(=O)/C=C/c1c(O)ccc2ccccc12	> 100 µM (inactive)
CCn1c(C)nc([N+](=O)[O-])c1Sc1ncc[nH]1	> 100 µM (inactive)
CCOC(=O)C1CCn2c(nc3c2c(=O)n(C)c(=O)n3C)S1 (stereo not given)	> 100 µM (inactive)

Source: ChEMBL document CHEMBL1201862
